All figures here come from ChEMBL document CHEMBL4177668.

Give measured remaining at 0.5 h for each item. Keep answers brief.
- testName: Metabolic stability in human liver microsomes assessed as compound remaining after 30 mins
- Format: ADME, microsome
- assayConditions: read-out: Stability
Respond numerically; units are % and should not be typed.

Req: Value lookup for remaining at 0.5 h; key = CCc1cnc(N2CCC(c3nc(COc4ccc(/C=C5\CC(=O)NC5=O)cc4C)cs3)CC2)nc1
Resp: 17.1

Req: Value lookup for remaining at 0.5 h; key = CCc1cnc(N2CCC(c3nc(COc4ccc(-n5cnnn5)cc4)cs3)CC2)nc1
Resp: 7.8

Req: Value lookup for remaining at 0.5 h; key = CCc1cnc(N2CCC(c3nc(COc4ccc(/C=C5\CC(=O)NC5=O)cc4F)cs3)CC2)nc1
Resp: 48.9

* * *

- assayedTarget: Glucose-dependent insulinotropic receptor (Homo sapiens)
- testName: Activation of human GPR119 expressed in CHOK1 cells co-expressing CRE-luciferase at 1 uM after 6 hrs by luciferase reporter gene assay relative to GSK1292263
- Type: functional, cell-based
endpointLabel: Activity (%)
Respond numerically; units are % and should not be typed.

Req: Value lookup for Activity; key = CCc1cnc(N2CCC(c3nc(COc4ccc(/C=C5\CC(=O)N(CCN6CCOCC6)C5=O)cc4F)cs3)CC2)nc1
Resp: 49

Req: Value lookup for Activity; key = CCc1cnc(N2CCC(c3nc(COc4ccc(/C=C5\CC(=O)NC5=O)cc4)cs3)CC2)nc1
Resp: 71

Req: Value lookup for Activity; key = CCc1cnc(N2CCC(c3nc(COc4ccc(/C=C5\SC(=S)N(N)C5=O)cc4F)cs3)CC2)nc1
Resp: 43

Req: Value lookup for Activity; key = CC(C)(C)OC(=O)N1CCC(c2nc(COc3c(F)cc(/C=C4\CC(=O)NC4=O)cc3F)cs2)CC1
Resp: 41

Req: Value lookup for Activity; key = CC(C)(O)CN1CCC(c2nc(COc3ccc(/C=C4\CC(=O)NC4=O)cc3)cs2)CC1
Resp: 27

* * *

Give measured Activity for each item. Keep answers brief.
- assayedTarget: Glucose-dependent insulinotropic receptor (Homo sapiens)
- Sequence (whole entry): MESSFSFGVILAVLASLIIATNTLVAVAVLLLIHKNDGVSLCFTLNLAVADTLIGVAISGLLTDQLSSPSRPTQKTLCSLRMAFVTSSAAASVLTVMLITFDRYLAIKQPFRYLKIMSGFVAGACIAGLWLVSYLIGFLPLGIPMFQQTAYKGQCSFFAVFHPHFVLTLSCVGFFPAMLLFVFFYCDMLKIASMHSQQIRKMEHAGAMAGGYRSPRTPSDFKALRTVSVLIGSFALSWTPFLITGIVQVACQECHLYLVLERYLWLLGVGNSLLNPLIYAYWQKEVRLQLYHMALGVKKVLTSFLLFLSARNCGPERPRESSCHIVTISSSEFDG
- testName: Activation of human GPR119 expressed in CHOK1 cells co-expressing CRE-luciferase at 1 uM after 6 hrs by luciferase reporter gene assay relative to GSK1292263
- Type: functional, cell-based
Respond numerically; units are % and should not be typed.

Req: Value lookup for Activity; key = CCc1cnc(N2CCC(c3nc(COc4ccc(/C=C5\SC(=O)NC5=O)cc4F)cs3)CC2)nc1
Resp: 60

Req: Value lookup for Activity; key = CC(C)(O)CN1CCC(c2nc(COc3ccc(/C=C4\CC(=O)NC4=O)cc3F)cs2)CC1
Resp: 31

Req: Value lookup for Activity; key = NCCOCCOCCOCCNC(=O)CCc1cnc(N2CCC(c3nc(COc4ccc(-n5cnnn5)cc4)cs3)CC2)nc1
Resp: 28

Req: Value lookup for Activity; key = NC(=O)CCc1cnc(N2CCC(c3nc(COc4ccc(-n5cnnn5)cc4)cs3)CC2)nc1
Resp: 22

Req: Value lookup for Activity; key = CCc1cnc(N2CCC(c3nc(COc4ccc(/C=C5\CC(=O)N(CC6CCOCC6)C5=O)cc4F)cs3)CC2)nc1
Resp: 61

Req: Value lookup for Activity; key = CCc1cnc(N2CCC(c3nc(COc4ccc(-n5cnnn5)cc4)cs3)CC2)nc1
Resp: 91

Req: Value lookup for Activity; key = CC(C)(C)OC(=O)N1CCC(c2nc(COc3ccc(-n4cnnn4)cc3)cs2)CC1
Resp: 118

Req: Value lookup for Activity; key = CCc1cnc(N2CCC(c3nc(COc4ccc(/C=C5\CC(=O)N(c6ccccc6)C5=O)cc4F)cs3)CC2)nc1
Resp: 67

Req: Value lookup for Activity; key = NCCNC(=O)CCc1cnc(N2CCC(c3nc(COc4ccc(-n5cnnn5)cc4)cs3)CC2)nc1
Resp: 27

Req: Value lookup for Activity; key = [N-]=[N+]=NCCOCCOCCOCCNC(=O)CCc1cnc(N2CCC(c3nc(COc4ccc(-n5cnnn5)cc4)cs3)CC2)nc1
Resp: 25

Req: Value lookup for Activity; key = CCc1cnc(N2CCC(c3nc(COc4ccc(/C=C5\CCNC5=O)cc4F)cs3)CC2)nc1
Resp: 65

Req: Value lookup for Activity; key = CCc1cnc(N2CCC(c3nc(COc4ccc(/C=C5\CC(=O)NC5=O)cc4C)cs3)CC2)nc1
Resp: 90

Req: Value lookup for Activity; key = C[N+](C)(C)CCNC(=O)CCc1cnc(N2CCC(c3nc(COc4ccc(-n5cnnn5)cc4)cs3)CC2)nc1
Resp: 28

Req: Value lookup for Activity; key = CCc1cnc(N2CCC(c3nc(COc4ccc(/C=C5\CC(=O)NC5=O)cc4F)cs3)CC2)nc1
Resp: 94

Req: Value lookup for Activity; key = CCOC(=O)CCc1cnc(N2CCC(c3nc(COc4ccc(-n5cnnn5)cc4)cs3)CC2)nc1
Resp: 34

Req: Value lookup for Activity; key = CCc1cnc(N2CCC(c3nc(COc4ccc(/C=C5\CC(=O)N(CCN)C5=O)cc4F)cs3)CC2)nc1
Resp: 51

* * *

- assayedTarget: Glucose-dependent insulinotropic receptor (Homo sapiens)
- Sequence (Q8TDV5 whole entry): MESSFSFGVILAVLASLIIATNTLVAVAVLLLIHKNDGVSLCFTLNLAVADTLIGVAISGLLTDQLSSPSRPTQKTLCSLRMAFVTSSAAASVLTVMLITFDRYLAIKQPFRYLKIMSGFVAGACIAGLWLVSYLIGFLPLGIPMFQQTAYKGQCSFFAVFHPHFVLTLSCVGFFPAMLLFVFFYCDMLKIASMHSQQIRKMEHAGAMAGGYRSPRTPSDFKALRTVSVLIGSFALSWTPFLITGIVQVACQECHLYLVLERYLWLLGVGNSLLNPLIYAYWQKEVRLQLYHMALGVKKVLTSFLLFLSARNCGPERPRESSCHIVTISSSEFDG
- testName: Agonist activity at human GPR119 expressed in CHOK1 cells co-expressing CRE-luciferase after 6 hrs by luciferase reporter gene assay
Give measured EC50 for each item. Keep answers brief.
Respond numerically; units are nM and should not be typed.

Req: Glucose-dependent insulinotropic receptor (Homo sapiens) / EC50 / CCc1cnc(N2CCC(c3nc(COc4ccc(/C=C5\CC(=O)NC5=O)cc4)cs3)CC2)nc1 : value?
Resp: 182

Req: Glucose-dependent insulinotropic receptor (Homo sapiens) / EC50 / CCc1cnc(N2CCC(c3nc(COc4ccc(-n5cnnn5)cc4)cs3)CC2)nc1 : value?
Resp: 87

Req: Glucose-dependent insulinotropic receptor (Homo sapiens) / EC50 / CCc1cnc(N2CCC(c3nc(COc4ccc(/C=C5\CC(=O)N(CC6CCOCC6)C5=O)cc4F)cs3)CC2)nc1 : value?
Resp: 240

* * *

- assayedTarget: hERG (KCNH2) (Homo sapiens)
- Sequence (Q12809 whole entry): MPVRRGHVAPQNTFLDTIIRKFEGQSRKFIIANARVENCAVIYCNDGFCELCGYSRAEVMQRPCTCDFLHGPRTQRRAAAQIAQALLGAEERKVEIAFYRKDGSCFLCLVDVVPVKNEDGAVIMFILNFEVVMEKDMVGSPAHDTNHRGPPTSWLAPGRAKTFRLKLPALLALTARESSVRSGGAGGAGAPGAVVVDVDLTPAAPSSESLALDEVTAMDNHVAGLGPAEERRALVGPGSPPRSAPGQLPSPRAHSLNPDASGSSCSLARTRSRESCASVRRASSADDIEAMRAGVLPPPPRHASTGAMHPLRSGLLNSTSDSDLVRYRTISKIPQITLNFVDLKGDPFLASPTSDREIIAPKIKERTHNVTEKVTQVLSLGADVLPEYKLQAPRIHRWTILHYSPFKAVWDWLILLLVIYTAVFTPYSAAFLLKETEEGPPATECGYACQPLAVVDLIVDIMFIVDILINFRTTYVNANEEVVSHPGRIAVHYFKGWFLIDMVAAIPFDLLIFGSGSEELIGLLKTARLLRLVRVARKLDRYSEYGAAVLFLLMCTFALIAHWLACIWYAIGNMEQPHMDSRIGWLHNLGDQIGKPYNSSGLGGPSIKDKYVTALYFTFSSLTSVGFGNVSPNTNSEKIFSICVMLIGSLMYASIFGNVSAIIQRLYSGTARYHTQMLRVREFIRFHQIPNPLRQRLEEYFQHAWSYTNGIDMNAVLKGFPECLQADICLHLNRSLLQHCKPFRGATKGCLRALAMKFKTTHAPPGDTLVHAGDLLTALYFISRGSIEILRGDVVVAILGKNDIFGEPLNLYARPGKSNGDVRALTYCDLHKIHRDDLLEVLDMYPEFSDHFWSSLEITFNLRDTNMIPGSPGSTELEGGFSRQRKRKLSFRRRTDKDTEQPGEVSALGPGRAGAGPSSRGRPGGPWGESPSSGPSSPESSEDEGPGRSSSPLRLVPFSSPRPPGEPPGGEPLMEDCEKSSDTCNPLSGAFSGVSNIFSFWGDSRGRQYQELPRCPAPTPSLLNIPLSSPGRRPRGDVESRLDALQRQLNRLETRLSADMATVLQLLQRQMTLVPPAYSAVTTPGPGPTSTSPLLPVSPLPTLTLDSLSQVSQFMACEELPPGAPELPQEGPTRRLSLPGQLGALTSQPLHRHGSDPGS
- testName: Inhibition of human ERG at 10 uM
Give measured inhibition at 10 µM for each item. Keep answers brief.
Respond numerically; units are % and should not be typed.

Req: hERG (KCNH2) (Homo sapiens) / inhibition at 10 µM / CCc1cnc(N2CCC(c3nc(COc4ccc(/C=C5\CC(=O)NC5=O)cc4F)cs3)CC2)nc1 : value?
Resp: 5.3

Req: hERG (KCNH2) (Homo sapiens) / inhibition at 10 µM / CCc1cnc(N2CCC(c3nc(COc4ccc(/C=C5\CC(=O)NC5=O)cc4C)cs3)CC2)nc1 : value?
Resp: 3.3

Req: hERG (KCNH2) (Homo sapiens) / inhibition at 10 µM / CCc1cnc(N2CCC(c3nc(COc4ccc(-n5cnnn5)cc4)cs3)CC2)nc1 : value?
Resp: 10.5

* * *

- assayedTarget: Glucose-dependent insulinotropic receptor (Homo sapiens)
- testName: Agonist activity at human GPR119 expressed in CHOK1 cells co-expressing CRE-luciferase after 6 hrs by luciferase reporter gene assay
pEC50: −log10 of the molar value.
Please note: yes (1) applies when pEC50 is 7 or greater, and no (0) applies otherwise.

Req: hey, is pEC50 for this one >= 7? Cc1cc(/C=C2\CC(=O)NC2=O)ccc1OCc1csc(C2CCN(C(=O)OC(C)(C)C)CC2)n1
Resp: yes (1)

Req: hey, is pEC50 for this one >= 7? CCc1cnc(N2CCC(c3nc(COc4ccc(/C=C5\SC(=O)NC5=O)cc4F)cs3)CC2)nc1
Resp: no (0)

Req: hey, is pEC50 for this one >= 7? CCc1cnc(N2CCC(c3nc(COc4ccc(/C=C5\CC(=O)NC5=O)cc4F)cs3)CC2)nc1
Resp: yes (1)

Req: hey, is pEC50 for this one >= 7? CCc1cnc(N2CCC(c3nc(COc4ccc(/C=C5\CC(=O)NC5=O)cc4C)cs3)CC2)nc1
Resp: yes (1)

Req: hey, is pEC50 for this one >= 7? CCc1cnc(N2CCC(c3nc(COc4c(F)cc(/C=C5\CC(=O)NC5=O)cc4F)cs3)CC2)nc1
Resp: no (0)
